B1: library; a variant is named by its letters at N, in order (parent)
chain: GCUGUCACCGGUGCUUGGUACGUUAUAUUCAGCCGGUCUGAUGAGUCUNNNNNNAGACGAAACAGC

Variants of: B1
Test method notes: normalized RNA/DNA level without ligand (relative to sTRSVctl = 100) (log10 (% of sTRSVctl)); HEK293T overexpressing SLC46A1; higher = less ribozyme self-cleavage, higher mRNA level
Assay conditions: without (6R,S)-folinic acid; ligand present: no
Observed property: normalized RNA/DNA level without ligand (log10)

> print(dat)
                               item.sequence  readout.number
 1  GCUGUCACCGGUGCUUGGUACGUUAUAUUCAGCCGGUCUGAUGAGUCUAGUGUGAGACGAAACAGC [AGUGUG]            1.78
 2  GCUGUCACCGGUGCUUGGUACGUUAUAUUCAGCCGGUCUGAUGAGUCUCAUACCAGACGAAACAGC [CAUACC]            2.03
 3  GCUGUCACCGGUGCUUGGUACGUUAUAUUCAGCCGGUCUGAUGAGUCUUUUAGUAGACGAAACAGC [UUUAGU]            1.96
 4  GCUGUCACCGGUGCUUGGUACGUUAUAUUCAGCCGGUCUGAUGAGUCUUCCGAUAGACGAAACAGC [UCCGAU]            1.96
 5  GCUGUCACCGGUGCUUGGUACGUUAUAUUCAGCCGGUCUGAUGAGUCUAUAGAGAGACGAAACAGC [AUAGAG]            1.52
 6  GCUGUCACCGGUGCUUGGUACGUUAUAUUCAGCCGGUCUGAUGAGUCUAUACUUAGACGAAACAGC [AUACUU]            2.02
 7  GCUGUCACCGGUGCUUGGUACGUUAUAUUCAGCCGGUCUGAUGAGUCUCUUCAUAGACGAAACAGC [CUUCAU]               2
 8  GCUGUCACCGGUGCUUGGUACGUUAUAUUCAGCCGGUCUGAUGAGUCUUGGUAAAGACGAAACAGC [UGGUAA]            1.88
 9  GCUGUCACCGGUGCUUGGUACGUUAUAUUCAGCCGGUCUGAUGAGUCUCUGACCAGACGAAACAGC [CUGACC]            2.05
10  GCUGUCACCGGUGCUUGGUACGUUAUAUUCAGCCGGUCUGAUGAGUCUCCGAGCAGACGAAACAGC [CCGAGC]            2.05
11  GCUGUCACCGGUGCUUGGUACGUUAUAUUCAGCCGGUCUGAUGAGUCUCGGGUUAGACGAAACAGC [CGGGUU]               2
12  GCUGUCACCGGUGCUUGGUACGUUAUAUUCAGCCGGUCUGAUGAGUCUUUCACAAGACGAAACAGC [UUCACA]            1.97
13  GCUGUCACCGGUGCUUGGUACGUUAUAUUCAGCCGGUCUGAUGAGUCUGUGGGCAGACGAAACAGC [GUGGGC]            1.79
14  GCUGUCACCGGUGCUUGGUACGUUAUAUUCAGCCGGUCUGAUGAGUCUCUAAGUAGACGAAACAGC [CUAAGU]               2
15  GCUGUCACCGGUGCUUGGUACGUUAUAUUCAGCCGGUCUGAUGAGUCUUUAUUCAGACGAAACAGC [UUAUUC]            2.01
16  GCUGUCACCGGUGCUUGGUACGUUAUAUUCAGCCGGUCUGAUGAGUCUCGGAUUAGACGAAACAGC [CGGAUU]            2.03
17  GCUGUCACCGGUGCUUGGUACGUUAUAUUCAGCCGGUCUGAUGAGUCUGUCGAGAGACGAAACAGC [GUCGAG]            1.95
18  GCUGUCACCGGUGCUUGGUACGUUAUAUUCAGCCGGUCUGAUGAGUCUAUCGGAAGACGAAACAGC [AUCGGA]            1.99
19  GCUGUCACCGGUGCUUGGUACGUUAUAUUCAGCCGGUCUGAUGAGUCUAGGCCAAGACGAAACAGC [AGGCCA]            2.05
20  GCUGUCACCGGUGCUUGGUACGUUAUAUUCAGCCGGUCUGAUGAGUCUGAGUAAAGACGAAACAGC [GAGUAA]            1.93
21  GCUGUCACCGGUGCUUGGUACGUUAUAUUCAGCCGGUCUGAUGAGUCUACUACUAGACGAAACAGC [ACUACU]            2.02
22  GCUGUCACCGGUGCUUGGUACGUUAUAUUCAGCCGGUCUGAUGAGUCUGACCGCAGACGAAACAGC [GACCGC]            2.07
23  GCUGUCACCGGUGCUUGGUACGUUAUAUUCAGCCGGUCUGAUGAGUCUAUGCAGAGACGAAACAGC [AUGCAG]            1.92
24  GCUGUCACCGGUGCUUGGUACGUUAUAUUCAGCCGGUCUGAUGAGUCUAUGUUCAGACGAAACAGC [AUGUUC]            2.03
25  GCUGUCACCGGUGCUUGGUACGUUAUAUUCAGCCGGUCUGAUGAGUCUCUGAGAAGACGAAACAGC [CUGAGA]            1.98
26  GCUGUCACCGGUGCUUGGUACGUUAUAUUCAGCCGGUCUGAUGAGUCUCCGAGAAGACGAAACAGC [CCGAGA]            1.99
27  GCUGUCACCGGUGCUUGGUACGUUAUAUUCAGCCGGUCUGAUGAGUCUUCUGGAAGACGAAACAGC [UCUGGA]            1.99
28  GCUGUCACCGGUGCUUGGUACGUUAUAUUCAGCCGGUCUGAUGAGUCUUUUUCCAGACGAAACAGC [UUUUCC]            2.02
29  GCUGUCACCGGUGCUUGGUACGUUAUAUUCAGCCGGUCUGAUGAGUCUAGCUUCAGACGAAACAGC [AGCUUC]            2.06
30  GCUGUCACCGGUGCUUGGUACGUUAUAUUCAGCCGGUCUGAUGAGUCUCCAAUGAGACGAAACAGC [CCAAUG]               2
31  GCUGUCACCGGUGCUUGGUACGUUAUAUUCAGCCGGUCUGAUGAGUCUACGGGAAGACGAAACAGC [ACGGGA]            1.94
32  GCUGUCACCGGUGCUUGGUACGUUAUAUUCAGCCGGUCUGAUGAGUCUACGCGGAGACGAAACAGC [ACGCGG]            1.96
33  GCUGUCACCGGUGCUUGGUACGUUAUAUUCAGCCGGUCUGAUGAGUCUUAUGUAAGACGAAACAGC [UAUGUA]            1.89
34  GCUGUCACCGGUGCUUGGUACGUUAUAUUCAGCCGGUCUGAUGAGUCUUGGCUGAGACGAAACAGC [UGGCUG]            2.07
35  GCUGUCACCGGUGCUUGGUACGUUAUAUUCAGCCGGUCUGAUGAGUCUCCAGGAAGACGAAACAGC [CCAGGA]            1.99
36  GCUGUCACCGGUGCUUGGUACGUUAUAUUCAGCCGGUCUGAUGAGUCUUCUAAGAGACGAAACAGC [UCUAAG]            1.81
37  GCUGUCACCGGUGCUUGGUACGUUAUAUUCAGCCGGUCUGAUGAGUCUUUUCUGAGACGAAACAGC [UUUCUG]            1.92
38  GCUGUCACCGGUGCUUGGUACGUUAUAUUCAGCCGGUCUGAUGAGUCUGCUCCGAGACGAAACAGC [GCUCCG]            2.03
39  GCUGUCACCGGUGCUUGGUACGUUAUAUUCAGCCGGUCUGAUGAGUCUCUUCCGAGACGAAACAGC [CUUCCG]            2.05
40  GCUGUCACCGGUGCUUGGUACGUUAUAUUCAGCCGGUCUGAUGAGUCUACGUUUAGACGAAACAGC [ACGUUU]               2
41  GCUGUCACCGGUGCUUGGUACGUUAUAUUCAGCCGGUCUGAUGAGUCUGUAACAAGACGAAACAGC [GUAACA]            2.02
42  GCUGUCACCGGUGCUUGGUACGUUAUAUUCAGCCGGUCUGAUGAGUCUUGGCAUAGACGAAACAGC [UGGCAU]            1.96
43  GCUGUCACCGGUGCUUGGUACGUUAUAUUCAGCCGGUCUGAUGAGUCUACACCUAGACGAAACAGC [ACACCU]            2.04
44  GCUGUCACCGGUGCUUGGUACGUUAUAUUCAGCCGGUCUGAUGAGUCUCUGUGCAGACGAAACAGC [CUGUGC]            2.01
45  GCUGUCACCGGUGCUUGGUACGUUAUAUUCAGCCGGUCUGAUGAGUCUAGCACGAGACGAAACAGC [AGCACG]            1.99
46  GCUGUCACCGGUGCUUGGUACGUUAUAUUCAGCCGGUCUGAUGAGUCUGUGGUAAGACGAAACAGC [GUGGUA]            1.91

The measurements presented in this section are drawn from the supplement of paper PMC6757056.
